B1: EHMT1 (parent)
chain: EEINKNISDFGRQQLLPPFPSLHQ

variants of: B1; assay: protein stability index of a GFP-peptide fusion (GPS, HEK-293T) (PSI 1-6); higher = more stable; conditions: c terminus: a fixed tail appended;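 also: lentivirally expressed fusions sorted by FACS into six bins by GFP to DsRed ratio, PSI derived from sequencing read proportions per bin multiplied by bin number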
recordedMetric: protein stability index
API doc: respond with a numeric literal and nothing else, no unit.

protein stability index in this record for P18W : 3.06

Further cases:
protein stability index in this record for I7L : 2.97

protein stability index in this record for H23N : 3.07
